Consider the following compounds and their measured IC50 readings.
biological target: AmpC (P. aeruginosa.) (Pseudomonas aeruginosa); experiment: biochemical; settings: P. aeruginosa AmpC IC50, 40 min preincubation, nitrocefin substrate, pH 7
The reply should be a number in µM, with the unit left off.

[[record]]
compound = "O=C(NC1CCCCCC1)N1CC[C@@H]2[C@H]1C(=O)N2S(=O)(=O)O"
target_of_assay = "AmpC (P. aeruginosa.) (Pseudomonas aeruginosa)"
numeric_readout = 0.4

[[record]]
compound = "O=C(NC1CCCCNCC1)N1CC[C@@H]2[C@H]1C(=O)N2S(=O)(=O)O (single isomer, unassigned; isomer b) [Example 18]"
target_of_assay = "AmpC (P. aeruginosa.) (Pseudomonas aeruginosa)"
numeric_readout = 25

[[record]]
compound = "O=C(NC1CCCCNCC1)N1CC[C@@H]2[C@H]1C(=O)N2S(=O)(=O)O (single isomer, unassigned; isomer a) [Example 17]"
target_of_assay = "AmpC (P. aeruginosa.) (Pseudomonas aeruginosa)"
numeric_readout = 1.3


Please find the next compound below.
## Input IC50 lookup needed for O=C(NC1CCNCC1)N1CC[C@@H]2[C@H]1C(=O)N2S(=O)(=O)O [Compound A, reference compound] , thanks.
## Output 6.8

====

system: P. aeruginosa strain CL5701; assay: Synergy assay (checkerboard) with imipenem; type: cell-based, Pseudomonas aeruginosa; settings: concentration for 2X synergy with imipenem against P. aeruginosa strain CL5701
Property: In Vitro 2X Synergy CL5701 (µM)
The reply should be a number in µM, with the unit left off.

Solved cases (6 shown):
[[record]]
molecule = "O=C(NC1CCCCNCC1)N1CC[C@@H]2[C@H]1C(=O)N2S(=O)(=O)O (single isomer, unassigned; isomer b) [Example 18]"
unit_info = "µM"
numeric_readout = 12.5

[[record]]
molecule = "O=C(N[C@H]1CCCNCC1)N1CC[C@@H]2[C@H]1C(=O)N2S(=O)(=O)O [Example 1]"
unit_info = "µM"
numeric_readout = 2.3

[[record]]
molecule = "O=C(NC1CCCCCC1)N1CC[C@@H]2[C@H]1C(=O)N2S(=O)(=O)O [Example 3]"
unit_info = "µM"
numeric_readout = 100

[[record]]
molecule = "O=C(N[C@@H]1CCCNCC1)N1CC[C@@H]2[C@H]1C(=O)N2S(=O)(=O)O [Example 2]"
unit_info = "µM"
numeric_readout = 3.1

[[record]]
molecule = "O=C(NC1CCNCC1)N1CC[C@@H]2[C@H]1C(=O)N2S(=O)(=O)O [Compound A, reference compound]"
unit_info = "µM"
numeric_readout = 3.7

[[record]]
molecule = "O=C(N[C@@H]1CNCCOC1)N1CC[C@@H]2[C@H]1C(=O)N2S(=O)(=O)O [Example 7]"
unit_info = "µM"
numeric_readout = 6.3


## Input In Vitro 2X Synergy CL5701 lookup needed for O=C(N[C@H]1CNCCOC1)N1CC[C@@H]2[C@H]1C(=O)N2S(=O)(=O)O [Example 8] , thanks.
## Output 6.3

## Input In Vitro 2X Synergy CL5701 lookup needed for O=C(NC1CCCCNCC1)N1CC[C@@H]2[C@H]1C(=O)N2S(=O)(=O)O (single isomer, unassigned; isomer a) [Example 17] , thanks.
## Output 3.1

====

target: AmpC (P. aeruginosa.) (Pseudomonas aeruginosa, UniProt P24735); test: biochemical; conditions: 40 min preincubation, nitrocefin substrate, pH 7; read-out: P. aeruginosa AmpC IC50
Sequence (P24735 27-397): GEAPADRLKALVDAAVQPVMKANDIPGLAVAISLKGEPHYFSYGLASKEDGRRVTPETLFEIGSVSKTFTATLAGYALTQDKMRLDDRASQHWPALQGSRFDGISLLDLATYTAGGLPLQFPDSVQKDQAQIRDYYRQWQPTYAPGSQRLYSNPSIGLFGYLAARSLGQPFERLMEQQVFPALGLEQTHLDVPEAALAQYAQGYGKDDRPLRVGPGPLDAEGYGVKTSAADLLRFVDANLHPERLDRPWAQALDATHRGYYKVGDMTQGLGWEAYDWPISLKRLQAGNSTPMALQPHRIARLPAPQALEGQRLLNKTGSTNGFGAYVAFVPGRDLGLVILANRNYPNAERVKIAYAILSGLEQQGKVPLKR
Consider the following compounds and their measured pIC50 readings.
Field pIC50 (float): negative decimal logarithm of the concentration in molar.

[[record]]
compound = "O=C(N[C@@H]1CNCCOC1)N1CC[C@@H]2[C@H]1C(=O)N2S(=O)(=O)O [Example 7]"
numeric_readout = 6.22

[[record]]
compound = "O=C(N[C@H]1CCCNCC1)N1CC[C@@H]2[C@H]1C(=O)N2S(=O)(=O)O [Example 1]"
numeric_readout = 5.92

[[record]]
compound = "O=C(N[C@H]1CNCCOC1)N1CC[C@@H]2[C@H]1C(=O)N2S(=O)(=O)O [Example 8]"
numeric_readout = 5.96


## Input Requested read-out pIC50, target or system AmpC (P. aeruginosa.) (Pseudomonas aeruginosa, UniProt P24735), entry O=C(N[C@@H]1CCCNCC1)N1CC[C@@H]2[C@H]1C(=O)N2S(=O)(=O)O [Example 2]
## Output 5.40
